TARGET_ENTITY: Tyrosine-protein phosphatase non-receptor type 1 (Homo sapiens, UniProt P18031)
Sequence (P18031 whole entry): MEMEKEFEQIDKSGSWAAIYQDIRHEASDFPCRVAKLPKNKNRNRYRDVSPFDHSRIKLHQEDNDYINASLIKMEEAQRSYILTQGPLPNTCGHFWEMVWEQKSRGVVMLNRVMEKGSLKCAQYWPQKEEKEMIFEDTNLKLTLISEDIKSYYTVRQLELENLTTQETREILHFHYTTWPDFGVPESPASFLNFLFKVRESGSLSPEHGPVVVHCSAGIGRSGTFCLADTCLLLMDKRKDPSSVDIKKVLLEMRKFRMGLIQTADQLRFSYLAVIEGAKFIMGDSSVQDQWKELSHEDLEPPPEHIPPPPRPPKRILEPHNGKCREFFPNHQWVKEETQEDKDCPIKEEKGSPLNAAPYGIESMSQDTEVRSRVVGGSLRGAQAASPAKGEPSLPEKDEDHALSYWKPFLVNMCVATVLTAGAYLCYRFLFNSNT
Kindly supply the reported IC50 values for the records listed here.
Express your answer in µM, writing the number without its unit.

## Task Return reported IC50. Input compound: CC(C)=CCc1cc([C@]23Oc4cc(O)c(CC=C(C)C)cc4C(=O)[C@H]2[C@H]2c4ccc(O)cc4O[C@@H]4Oc5c(ccc(O)c5CC=C(C)C)[C@@]42O3)ccc1O [LICOAGRODIN]
## Result 11.5

## Task Return reported IC50. Input compound: CC(C)=CCc1c(O)ccc2c1O[C@H](c1ccc3c(c1)CC(O)C(C)(C)O3)CC2=O (stereo not given in full)
## Result 52.2

## Task Return reported IC50. Input compound: CC1(C)C=Cc2c(ccc(-c3coc4cc(O)ccc4c3=O)c2O)O1 [GLABRONE]
## Result 66.3

## Task Return reported IC50. Input compound: CC(C)=CCc1cc([C@H]2Oc3c(ccc(O)c3CC=C(C)C)C(=O)[C@@H]2O)ccc1O
## Result 75.1

## Task Return reported IC50. Input compound: CC(C)=CCc1cc(C(=O)C2(c3cc(O)c(O)cc3/C=C3\Oc4c(ccc(O)c4CC=C(C)C)C3=O)Oc3cc(O)c(CC=C(C)C)cc3C2=O)ccc1O (stereo not given) [LICOAGRONE]
## Result 6

## Task Return reported IC50. Input compound: CC1(C)C=Cc2c(ccc3c2OC[C@@H](c2ccc(O)cc2O)C3)O1 [GLABRIDIN]
## Result 73.4

## Task Return reported IC50. Input compound: CCCCCCCCCCCCCCCC(=O)C1=C(O)[C@@H](CO)OC1=O
## Result 4.6

## Task Return reported IC50. Input compound: COc1c(/C=C/C(=O)c2ccc(O)cc2)ccc(O)c1CC=C(C)C
## Result 57

## Task Return reported IC50. Input compound: COc1ccc(-c2coc3cc(O)c(OC)cc3c2=O)cc1O [ODORATIN]
## Result 70

## Task Return reported IC50. Input compound: COc1c(/C=C/C(=O)c2ccc(O)c(O)c2)ccc(O)c1CC=C(C)C
## Result 59.5

* * *

TARGET_ENTITY: Dual specificity protein phosphatase 3 (Homo sapiens) (UniProt P51452)
Sequence (P51452 whole entry, looked up): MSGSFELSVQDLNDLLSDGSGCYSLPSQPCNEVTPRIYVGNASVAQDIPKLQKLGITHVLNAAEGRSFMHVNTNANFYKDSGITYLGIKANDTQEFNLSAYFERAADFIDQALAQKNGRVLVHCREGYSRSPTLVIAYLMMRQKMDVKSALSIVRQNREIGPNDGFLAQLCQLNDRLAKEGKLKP
TEST_DESCRIPTION: Inhibition of VHR (unknown origin) at 100 uM
ATTRIBUTE_MEASURED: inhibition

## Task Return reported inhibition. Input compound: CC(C)=CCc1cc(C(=O)C2(c3cc(O)c(O)cc3/C=C3\Oc4c(ccc(O)c4CC=C(C)C)C3=O)Oc3cc(O)c(CC=C(C)C)cc3C2=O)ccc1O (stereo not drawn) [LICOAGRONE]
## Result > 70%

## Task Return reported inhibition. Input compound: CC(C)=CCc1c(O)ccc(C(=O)/C=C/c2ccc(O)cc2)c1O [ISOBAVACHALCONE]
## Result > 70%

## Task Return reported inhibition. Input compound: COc1cc(O)cc2occ(-c3cc(O)c(O)c(CC=C(C)C)c3)c(=O)c12
## Result > 70%
